TESTED TARGET: cdk2
PROTOCOL DETAILS: in vitro cdk2 kinase assay with GST-fusion proteins, histone H1 substrate
Type: biochemical
Design: key: P=positive; N=negative
EXPERIMENTAL CONTEXT: 0.1 μg GST-fusion protein, cdk2 immunoprecipitated from NIH/3T3
No end group written: not given here.
MEASURED ENDPOINT: Kinase assay (inhibitory effect on cdk2 activity)

Answered cases to consult:
{"columns": ["SUBSTANCE", "RESULT"],
 "data": [
  ["Spa311: pRb2/p130 amino acids 641 to 682 (42 amino acids long), SEQ ID NO:2 (LTPRRVTEVRADTGGLGRSITSPTTLYDRYSSPPASTTRRRL; listed as Homo sapiens)", "P"],
  ["Spa312: pRb2/p130 spacer fragment, amino acids 641-673, 33 amino acids (LTPRRVTEVRADTGGLGRSITSPTTLYDRYSSP; also: fused to dimerising Fc or GST)", "N"],
  ["Spa1: pRb2/p130 spacer fragment, amino acids 616-642, 27 amino acids (VPTCEEVMPPQNLERADEICIAGSPLT; cysteine pairing not given here; also: fused to dimerising Fc or GST)", "N"],
  ["Spa310: pRb2/p130 amino acids 641-679 (39 amino acids long), SEQ ID NO:3; LTPRRVTEVRADTGGLGRSITSPTTLYDRYSSPPASTTR (listed as Homo sapiens)", "P"]
]}

Asked: Give me measured Kinase assay (inhibitory effect on cdk2 activity), please, for this substance: Spa12: pRb2/p130 spacer fragment, amino acids 616-666, 51 amino acids (VPTCEEVMPPQNLERADEICIAGSPLTPRRVTEVRADTGGLGRSITSPTTL; cysteine pairing not given here; also: fused to dimerising Fc or GST)
Given back: N

Asked: Identify Kinase assay (inhibitory effect on cdk2 activity) associated with the substance Spa2: pRb2/p130 spacer fragment, amino acids 641-666, 26 amino acids (LTPRRVTEVRADTGGLGRSITSPTTL; UniProt Q08999 641-666, looked up, fragment)
Given back: N

Asked: State its Kinase assay (inhibitory effect on cdk2 activity): Spa72: Table 1 construct: pRb2/p130 spacer fragment, amino acids 652-711, 60 amino acids (DTGGLGRSITSPTTLYDRYSSPPASTTRRRLFVENDSPSDGGTPGRMPPQPLVNAVPVQN; also: fused to dimerising Fc or GST)
Given back: N

Asked: Entry Spb: pRb2/p130 spacer fragment, amino acids 712-754, 43 amino acids (VSGETVSVTPVPGQTLVTMATATVTANNGQTVTIPVQGIANEN; also: fused to dimerising Fc or GST) needs its Kinase assay (inhibitory effect on cdk2 activity) filled in; supply it.
Given back: N

Asked: Answer with the recorded Kinase assay (inhibitory effect on cdk2 activity) for the substance listed here: Spa3: pRb2/p130 spacer fragment, amino acids 663-711, 49 amino acids (PTTLYDRYSSPPASTTRRRLFVENDSPSDGGTPGRMPPQPLVNAVPVQN; also: fused to dimerising Fc or GST)
Given back: N
